Test system: HaCaT cells
protocol details: Relief of 5-FU proliferative toxicity to HaCaT cells (CCK-8 cell survival)
Assay type: cell-based
condition info: 5-Fu 20 μM; selected compound final concentration 3.13 μM; HaCaT cells
metric name: Cell Survival Rate (increased percentage of cell survival compared with the Group of 5-FU)

Example entries and their recorded answers appear below.
- compound: "Cc1cn([C@H]2C[C@H](O)[C@@H](COC(=O)[C@@H](C)c3ccc(CC(C)C)cc3)O2)c(=O)[nH]c1=O"
  observed value: "37%-43%"
- compound: "COc1ccc2c(c1)c(CC(=O)OC[C@H]1O[C@@H](n3cc(C)c(=O)[nH]c3=O)C[C@@H]1O)c(C)n2C(=O)c1ccc(Cl)cc1"
  observed value: "38%-47%"
- compound: "Cc1cn([C@H]2C[C@H](O)[C@@H](COC(=O)[C@H](C)c3ccc(-c4ccccc4)c(F)c3)O2)c(=O)[nH]c1=O"
  observed value: "35%-42%"
- compound: "Cc1cn([C@H]2C[C@H](O)[C@@H](COC(=O)C(C)c3cccc(Oc4ccccc4)c3)O2)c(=O)[nH]c1=O (stereo partly shown)"
  observed value: "51%-58%"
- compound: "Cc1ccc(C(=O)c2ccc(CC(=O)OC[C@H]3O[C@@H](n4cc(C)c(=O)[nH]c4=O)C[C@@H]3O)n2C)cc1"
  observed value: "27%-35%"

Specify measured Cell Survival Rate (increased percentage of cell survival compared with the Group of 5-FU) for Cc1cn([C@H]2C[C@H](OC(=O)C(C)c3cccc(Oc4ccccc4)c3)[C@@H](CO)O2)c(=O)[nH]c1=O (stereo partly shown) .
72%-79%

Specify measured Cell Survival Rate (increased percentage of cell survival compared with the Group of 5-FU) for CCC(CC)COC(=O)[C@H](C)N[P@@](=O)(Oc1ccccc1)O[C@H]1C[C@H](n2cc(C)c(=O)[nH]c2=O)O[C@@H]1CO .
72%-79%

// provenance: patent US20230405003A1
